Tested on: normal human neonatal foreskin epidermal keratinocytes (NHEK-F)
assay_text: Cell proliferation inhibition test
Format: cell-based
conditions_used: Keratinocyte, 72 h, NHEK-F cells, three days incubation, ATPlite or CellTiterGlo, read-out: IC50 (concentration of the compound at which the cell count is reduced by 50%)
pIC50: −log10 of the molar value.
Catalogue of pIC50 values

Below are worked cases with known answers.
CC(C)Cn1ccc2cc(Nc3ncc(C4CC4)cc3C(=O)O)ccc21 | ≥ 8.00
COc1ccc(Cn2ccc3cc(Nc4ncc(C5CC5)cc4C(=O)O)ccc32)cc1 | 7.00 to 8.00
Cc1cc2cc(Nc3ncc(C4CC4)cc3C(=O)O)ccc2n1CC(C)C | 7.00 to 8.00

Then this compound:
Which pIC50 value belongs to "O=C(O)c1cc(C2CC2)ccc1Nc1ccc2c(ccn2Cc2cccc(OCC(F)(F)F)c2)c1" ? ≥ 8.00

---

Catalogue of pIC50 values
Test system: normal human neonatal foreskin epidermal keratinocytes (NHEK-F)
assay_text: Cell proliferation inhibition test
Format: cell-based
conditions_used: Keratinocyte, 72 h, NHEK-F cells, three days incubation, ATPlite or CellTiterGlo, read-out: IC50 (concentration of the compound at which the cell count is reduced by 50%)
pIC50: −log10 of the molar value.

O=C(O)c1cc(C2CC2)cnc1Nc1ccc2c(ccn2Cc2cc(C(F)(F)F)cc(C(F)(F)F)c2)c1 | ≥ 8.00
O=C(O)c1cc(Br)cnc1Nc1ccc2c(ccn2Cc2cccc(F)c2)c1 | 7.00 to 8.00

Which pIC50 value belongs to "Cn1cc(-c2ccc(F)cc2)c2cc(Nc3ncc(C4CC4)cc3C(=O)O)ccc21" ? 7.00 to 8.00

Which pIC50 value belongs to "O=C(O)c1cc(C2CC2)cnc1Nc1cccc2c(N3CCCCC3)nccc12" ? 7.00 to 8.00

---

Catalogue of IC50 values
System: normal human neonatal foreskin epidermal keratinocytes (NHEK-F)
assay_text: Cell proliferation inhibition test
Format: cell-based
conditions_used: Keratinocyte, 72 h, NHEK-F cells, three days incubation, ATPlite or CellTiterGlo, read-out: IC50 (concentration of the compound at which the cell count is reduced by 50%)
Protocol: 2×10^3 normal human neonatal foreskin epidermal keratinocytes (NHEK-F) (Kurabo, KK-4009) were suspended in 100 μL of Humedia-EG2 (Kurabo, KK-2150S) medium, plated in a 96-well plate and incubated overnight. The test compound was added on the following day and the cells were incubated for further three days. The cell count was determined using ATPlite (PerkinElmer, 6016739) or CellTiterGlo (Promega, G7573). […]

O=C(O)c1cc(C2CC2)cnc1Nc1ccc2c(ccn2Cc2ccccc2F)c1 [Example 458] | ≤ 10 nM
Cc1cc(C)cc(Cn2ccc3cc(Nc4ncc(C5CC5)cc4C(=O)O)ccc32)c1 [Example 498] | ≤ 10 nM

Which IC50 value belongs to O=C(O)c1cc(C2CC2)cnc1Nc1ccc2c(ccn2CCc2ccccc2)c1 [Example 619] ? ≤ 10 nM

Which IC50 value belongs to Cn1ccc2cc(Nc3ncc(C4CC4)cc3C(=O)O)cc(/C=C/C3CC3)c21 [Example 469] ? ≤ 10 nM

Which IC50 value belongs to O=C(O)c1cc(C2CC2)cnc1Nc1cccc2c1ccn2CC1CCC1 [Example 439] ? ≤ 10 nM

Which IC50 value belongs to O=C(O)c1cc(Cl)ccc1Nc1ccc2c(ccn2-c2cccc(C(F)(F)F)c2)c1 [Example 333] ? ≤ 10 nM

Which IC50 value belongs to O=C(O)c1cc(Cl)ccc1Nc1ccc2c(ccn2CC2CCCCC2)c1 [Example 257] ? ≤ 10 nM

Which IC50 value belongs to COCCCc1cc(Nc2ncc(C3CC3)cc2C(=O)O)cc2ccn(CC3CC3)c12 [Example 609] ? ≤ 10 nM
